Molecular target: Human ATX protein (Homo sapiens)
Construct: made in house
Experiment: ATX biochemical assay (FRET, FS-3 substrate)
Details: FRET assay, FS-3 2 μM, ATX 1.0 μg/mL, 30 minutes preincubation, 2 hours reaction at room temperature; read-out: IC50
Counter-ions that a name gives are not always drawn.
observable: IC50

Known IC50 results, listed for orientation:
{"columns": ["molecule", "testedOn", "IC50"],
 "data": [
  ["O=C(CC1CNC1)N1CCc2c(C(F)(F)F)nn(Cc3ccc(Cl)cc3F)c2C1 [Example 9-3, TFA salt]", "Human ATX protein (Homo sapiens)", "≤ 0.1 µM"],
  ["CC1CCC(Cn2nc(C(F)(F)F)c3c2CN(C(=O)C[C@H]2CC[C@H](C(=O)O)CC2)CC3)CC1 (stereo partly shown) [Example 5-37]", "Human ATX protein (Homo sapiens)", "≤ 0.1 µM"],
  ["O=C(CC1CCC(N2CCC2)CC1)N1CCc2c(C(F)(F)F)nn(Cc3ccc(F)cc3)c2C1 (stereo not shown) [Example 22-6, TFA salt]", "Human ATX protein (Homo sapiens)", "≤ 0.1 µM"]
]}

Now let's try a different one.
Q: Any idea what its IC50 is? The molecule is CCOC(=O)[C@H]1CC[C@H](CC(=O)N2CCc3c(C(F)(F)F)nn(Cc4ccc(Cl)cc4F)c3C2)CC1 [Example 2-1]
Result: ≤ 0.1 µM
